# experimentalSystem: BRM (Homo sapiens)
# Construct: In-Cell Western Screen of BRM Degradation in SW1573 Cells; endogenous in cells; host or cells: SW1573
# protocolNotes: In-cell Western screen of BRM degradation in SW1573 cells (Dmax and DC50)
# Type: cell-based
# assaySetup: target protein degradation; read-out: BRM DC50
valueType: DC50

Worked cases, answers included:
Cc1ncn(C)c1-c1ccc([C@H](C)NC(=O)[C@@H]2C[C@@H](O)CN2C(=O)[C@@H](c2cc(OCCN3CCC(O[C@H]4C[C@H](Oc5cc(N6C7CCC6CN(c6cc(-c8ccccc8O)nnc6N)C7)ccn5)C4)CC3)no2)C(C)C)cc1	2.5 to 10 nM
Cc1ncsc1-c1ccc([C@H](C)NC(=O)[C@@H]2C[C@@H](O)CN2C(=O)[C@H](c2cc(OCCC3CCN(C(=O)[C@H]4C[C@H](CN5CCC(n6cc(-c7cc(-c8ccccc8O)nnc7N)cn6)CC5)C4)CC3)no2)C(C)C)cc1	< 2.5 nM
Cc1ncsc1-c1ccc([C@H](C)NC(=O)[C@@H]2C[C@@H](O)CN2C(=O)[C@H](c2cc(C#CCN3CCC(OC4CC(Oc5cc(N6C7CC[C@@H]6CN(c6cc(-c8ccccc8O)nnc6N)C7)ccn5)C4)CC3)no2)C(C)C)cc1 (stereo partly shown)	> 30 nM

Output DC50 of Cc1ncsc1-c1ccc([C@H](C)NC(=O)[C@@H]2C[C@@H](O)CN2C(=O)[C@@H](c2cc(OCCC3CCN(C(=O)[C@H]4C[C@@H](CN5CCC(n6cc(-c7cc(-c8ccccc8O)nnc7N)cn6)CC5)C4)CC3)no2)C(C)C)cc1
> 30 nM

====

# experimentalSystem: BRM (Homo sapiens)
# Construct: In-Cell Western Screen of BRM Degradation in SW1573 Cells; endogenous in cells; host or cells: SW1573
# protocolNotes: In-cell Western screen of BRM degradation in SW1573 cells (Dmax and DC50)
# Type: cell-based
# assaySetup: BRM degradation, SW1573 cells; tested at the top concentration of between 0.3 and 10 μM; read-out: Dmax (%) (% degraded)
valueType: Dmax

COCc1ncsc1-c1ccc([C@H](C)NC(=O)[C@@H]2C[C@@H](O)CN2C(=O)[C@@H](c2cc(OCCN3CCC(O[C@H]4C[C@H](Oc5cc(N6C7CCC6CN(c6cc(-c8ccccc8O)nnc6N)C7)ccn5)C4)CC3)no2)C(C)C)cc1	> 75%

Now consider the entry below.
Give reported Dmax value for Cc1ncsc1-c1ccc([C@H](C)NC(=O)[C@@H]2C[C@@H](O)CN2C(=O)[C@@H](c2cc(OCCN3CCC(O[C@H]4C[C@H](Oc5cc(N6C7CCC6CN(c6cc(-c8ccccc8O)nnc6N)C7)ccn5)C4)CC3)no2)C(C)C)cc1F
> 75%

====

Catalogue of molecules with associated DC50
# experimentalSystem: BRM (Homo sapiens, UniProt P51531)
# Construct: In-Cell Western Screen of BRM Degradation in SW1573 Cells; endogenous in cells; host or cells: SW1573
# Sequence (P51531 whole entry): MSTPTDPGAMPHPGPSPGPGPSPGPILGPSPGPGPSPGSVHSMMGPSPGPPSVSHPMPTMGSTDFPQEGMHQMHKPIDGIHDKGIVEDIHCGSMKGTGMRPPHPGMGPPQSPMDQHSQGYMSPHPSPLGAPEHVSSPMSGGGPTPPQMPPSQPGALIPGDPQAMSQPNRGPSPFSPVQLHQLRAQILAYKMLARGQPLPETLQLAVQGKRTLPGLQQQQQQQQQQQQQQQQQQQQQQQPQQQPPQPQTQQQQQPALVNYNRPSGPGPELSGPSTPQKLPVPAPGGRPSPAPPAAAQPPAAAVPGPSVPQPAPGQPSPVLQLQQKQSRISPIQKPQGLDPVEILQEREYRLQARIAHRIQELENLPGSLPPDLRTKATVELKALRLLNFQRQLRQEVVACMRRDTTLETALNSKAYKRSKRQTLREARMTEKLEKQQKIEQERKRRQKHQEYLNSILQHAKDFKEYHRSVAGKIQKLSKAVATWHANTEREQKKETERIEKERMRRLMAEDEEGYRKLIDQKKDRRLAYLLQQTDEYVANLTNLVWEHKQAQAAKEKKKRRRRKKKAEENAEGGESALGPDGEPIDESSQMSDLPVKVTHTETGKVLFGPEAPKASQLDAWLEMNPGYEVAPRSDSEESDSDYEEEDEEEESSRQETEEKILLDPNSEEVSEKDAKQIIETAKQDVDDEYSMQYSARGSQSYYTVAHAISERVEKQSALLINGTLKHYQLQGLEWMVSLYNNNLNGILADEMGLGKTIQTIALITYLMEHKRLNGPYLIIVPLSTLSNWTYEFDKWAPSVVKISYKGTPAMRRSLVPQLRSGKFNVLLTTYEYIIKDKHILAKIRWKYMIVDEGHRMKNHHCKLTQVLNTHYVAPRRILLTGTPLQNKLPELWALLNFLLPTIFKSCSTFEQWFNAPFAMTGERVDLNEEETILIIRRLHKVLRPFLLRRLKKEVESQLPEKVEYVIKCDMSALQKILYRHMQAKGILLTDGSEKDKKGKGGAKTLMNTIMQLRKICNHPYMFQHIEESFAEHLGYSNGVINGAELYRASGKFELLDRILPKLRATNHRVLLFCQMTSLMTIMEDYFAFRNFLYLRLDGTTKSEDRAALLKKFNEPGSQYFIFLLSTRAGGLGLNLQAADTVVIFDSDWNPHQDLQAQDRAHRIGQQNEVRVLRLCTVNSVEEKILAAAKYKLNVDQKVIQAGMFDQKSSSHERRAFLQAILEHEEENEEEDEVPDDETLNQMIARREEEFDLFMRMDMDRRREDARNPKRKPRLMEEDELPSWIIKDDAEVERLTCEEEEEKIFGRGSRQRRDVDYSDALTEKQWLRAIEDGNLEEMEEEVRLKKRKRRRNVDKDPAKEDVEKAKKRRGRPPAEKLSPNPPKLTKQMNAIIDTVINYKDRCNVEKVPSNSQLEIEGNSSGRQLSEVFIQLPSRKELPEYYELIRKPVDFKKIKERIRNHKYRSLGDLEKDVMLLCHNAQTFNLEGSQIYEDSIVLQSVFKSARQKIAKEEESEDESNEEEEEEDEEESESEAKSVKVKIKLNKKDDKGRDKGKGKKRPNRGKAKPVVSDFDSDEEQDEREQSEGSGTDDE
# protocolNotes: In-cell Western screen of BRM degradation in SW1573 cells (Dmax and DC50)
# Assay type: cell-based
# assaySetup: BRM degradation, SW1573 cells; read-out: DC50
# Protocol: In-Cell Western Screen of BRM Degradation in SW1573 Cells […] To read each plate TBS-T was removed, and each plate was inverted tapped on a paper towel. The plates were read on the LI-COR Odyssey with default intensity settings of 5.0 for both channels. LI-COR images were analyzed with the in-cell Western feature of Image Studio Lite.

Below, 6 molecules whose answers are already recorded.
Cc1ncsc1-c1ccc([C@H](CN)NC(=O)[C@@H]2C[C@@H](O)CN2C(=O)[C@@H](c2cc(OCCN3CCN(CCOc4cc(N5C6CCC5CN(c5cc(-c7ccccc7O)nnc5N)C6)ccn4)CC3)no2)C(C)C)cc1	2.5 to 10 nM
Cc1ncsc1-c1ccc([C@H](C)NC(=O)[C@@H]2C[C@@H](O)CN2C(=O)[C@H](c2cc(N3CCN(C(C)(C)C4CCN(C[C@H]5C[C@H](Oc6cc(N7C8CCC7CN(c7cc(-c9ccccc9O)nnc7N)C8)ccn6)C5)CC4)CC3)no2)C(C)C)cc1	> 30 nM
Cc1ncoc1-c1ccc([C@H](C)NC(=O)[C@@H]2C[C@@H](O)CN2C(=O)[C@H](c2cc(OCCN3CCN(CCOc4cc(N5C6CCC5CN(c5cc(-c7ccccc7O)nnc5N)C6)ccn4)CC3)no2)C(C)C)cc1	> 30 nM
Cc1ncsc1-c1ccc([C@H](C)NC(=O)[C@@H]2C[C@@H](O)CN2C(=O)[C@@H](c2cc(N3CCC4(CCCN(C[C@H]5C[C@H](Oc6cc(N7C8CCC7CN(c7cc(-c9ccccc9O)nnc7N)C8)ccn6)C5)C4)CC3)no2)C(C)C)cc1	< 2.5 nM
Cc1nccn1-c1ccc([C@H](C)NC(=O)[C@@H]2C[C@@H](O)CN2C(=O)[C@@H](c2cc(OCC#Cc3ccc(O[C@H]4C[C@H](Oc5cc(N6C7CCC6CN(c6cc(-c8ccccc8O)nnc6N)C7)ccn5)C4)cn3)no2)C(C)C)cc1	< 2.5 nM
Cc1ncsc1-c1ccc(CNC(=O)[C@@H]2C[C@@H](O)CN2C(=O)[C@H](c2cc(OCCOCCOCCOCCOCCn3cc(-c4cc(-c5ccccc5O)nnc4N)cn3)no2)C(C)C)cc1	> 30 nM

Supply recorded DC50 for Cc1ncsc1-c1ccc([C@H](C)NC(=O)[C@@H]2C[C@@H](O)CN2C(=O)[C@H](c2cc(N3CCC4(CCN(C[C@H]5C[C@H](Oc6cc(N7C8CCC7CN(c7cc(-c9ccccc9O)nnc7N)C8)ccn6)C5)CC4)CC3)no2)C(C)C)cc1 here.
> 30 nM

For the molecule Cc1ncsc1-c1ccc(CNC(=O)[C@@H]2C[C@@H](O)CN2C(=O)[C@@H](NC(=O)Cc2ccc(N3CCN(CCOCCCc4cc(N5C6CCC5CN(c5cc(-c7ccccc7O)nnc5N)C6)ccn4)CC3)nc2)C(C)(C)C)cc1 , give its reported DC50.
10 to 30 nM

Reference for the values: patent US12539292B2
